# experiment.summary: Test compounds' PK assay in ICR mice
# Format: in vivo
# condition.parameters: mouse, plasma, po, 10 mg/kg
measurement.type: half-life (h)
Report the figure in h without appending any unit label.

compound="CCOC(=O)C1=C(CN2CCOC(CCC(=O)O)C2)NC(c2nccs2)=NC1c1ccc(F)cc1Br (centres unmarked)" readout_number=6.62

Prompt: Note down half-life recorded for CCOC(=O)C1=C(CN2CCOC(CC(=O)O)C2)NC(c2nccs2)=NC1c1ccc(F)cc1Br (centres unmarked)
Response: 1.18

---

# experiment.summary: Test compounds' PK assay in ICR mice
# Assay type: in vivo
# condition.parameters: mouse, plasma, po, 10 mg/kg
measurement.type: Cmax

compound="CCOC(=O)C1=C(CN2CCOC(CC(=O)O)C2)NC(c2nccs2)=NC1c1ccc(F)cc1Br (centres unmarked)" result="7330 ng/mL"

Note: attention shifts to another entry.
Prompt: State its Cmax: CCOC(=O)C1=C(CN2CCOC(CCC(=O)O)C2)NC(c2nccs2)=NC1c1ccc(F)cc1Br (centres unmarked)
Response: 8610 ng/mL

---

# experiment.summary: Test compounds' PK assay in ICR mice
# Assay type: in vivo
# condition.parameters: mouse, plasma, iv, 10 mg/kg
measurement.type: half-life
Returns: string containing the numeric result and its unit.

Prompt: Identify measured half-life associated with CCOC(=O)C1=C(CN2CCOC(CC(=O)O)C2)NC(c2nccs2)=NC1c1ccc(F)cc1Br (stereo not shown) [Example 74]
Response: 1.02 h

---

# experiment.summary: Test compounds' PK assay in ICR mice
# Assay type: in vivo
# condition.parameters: mouse, plasma, iv, 10 mg/kg, AUC in 0 hour to infinite time
measurement.type: AUC(0-inf) (ng·h/mL)
Numbers only; they are read as ng·h/mL.

Prompt: For the molecule CCOC(=O)C1=C(CN2CCOC(CC(=O)O)C2)NC(c2nccs2)=NC1c1ccc(F)cc1Br (stereo not shown) [Example 74] , report AUC(0-inf).
Response: 11200

---

# experiment.summary: Test compounds' PK assay in ICR mice
# Format: in vivo
# condition.parameters: mouse, plasma, iv, 10 mg/kg, read-out: Vss
measurement.type: Vd (L/kg)
All answers are understood in L/kg, so give the number only.

Prompt: Please give measured Vd of the following entry: CCOC(=O)C1=C(CN2CCOC(CC(=O)O)C2)NC(c2nccs2)=NC1c1ccc(F)cc1Br (stereo not shown) [Example 74]
Response: 0.82

---

# experiment.summary: Test compounds' PK assay in ICR mice
# Assay type: in vivo
# condition.parameters: mouse, plasma, iv, 2 mg/kg, AUC in 0-24 hours
measurement.type: AUC(0-t)
# do not omit the unit; it follows the number

Prompt: Note down AUC(0-t) recorded for CCOC(=O)C1=C(CN2CCOC(CCC(=O)O)C2)NC(c2nccs2)=NC1c1ccc(F)cc1Br (stereo not shown)
Response: 1630 ng·h/mL

---

# System: HBV
# experiment.summary: In-vitro anti-HBV activity in stable HBV-producing cell line (HepG2.2.15), HBV DNA in culture fluid by qPCR
# Assay type: cell-based
# condition.parameters: Hepatitis B virus, 168 h; 500 nmol final concentration, HepG2.2.15 cells, HBV DNA in culture media on day 7 post seeding, vs DMSO control; read-out: HBV (% Inh.) (500 nmol)
The following molecules are listed with their measured inhibition at 0.5 µM values.
The answer is to be given in %; state only the numeric part.

Completed entries (count: 5):
molecule="CCOC(=O)C1=C(CN2CCOCC2C(=O)OC(C)C)NC(c2nccs2)=NC1c1ccc(F)cc1Br (stereo not shown)" readout_number=91.9
molecule="CCOC(=O)C1=C(CN2CCOCC2C(N)=O)NC(c2nccs2)=NC1c1ccc(Cl)cc1Cl (stereo not shown)" readout_number=91.9
molecule="CCOC(=O)C1=C(CN2CCOC(C(=O)O)C2)NC(c2nccs2)=NC1c1ccc(Cl)cc1Cl (stereo not shown)" readout_number=95.6
molecule="CCOC(=O)C1=C(CN2CC(C)(C)OC[C@H]2C(=O)OC)NC(c2nccs2)=NC1c1ccc(Cl)cc1Cl (stereo partly shown)" readout_number=56.1
molecule="CCOC(=O)C1=C(CN2CCOC(C(=O)O)C2)NC(c2ncn(C)n2)=NC1c1ccc(F)cc1Br (stereo not shown)" readout_number=36

Prompt: # return recorded inhibition at 0.5 µM for input CCOC(=O)C1=C(CN2CCOC[C@H]2C(=O)O)NC(c2nc(CC(=O)OC)cs2)=NC1c1ccc(F)cc1Br (stereo partly shown)
Response: 91.1

Prompt: Please supply the value of reported inhibition at 0.5 µM for the item CCOC(=O)C1=C(CN2CCOCC2C(=O)OC(C)C)NC(c2nccs2)=NC1c1ccc(Cl)cc1Cl (stereo not shown)
Response: 87.9
